# Target Under Test: Histone deacetylase 8 (Homo sapiens, UniProt Q9BY41)
# Sequence (Q9BY41 whole entry): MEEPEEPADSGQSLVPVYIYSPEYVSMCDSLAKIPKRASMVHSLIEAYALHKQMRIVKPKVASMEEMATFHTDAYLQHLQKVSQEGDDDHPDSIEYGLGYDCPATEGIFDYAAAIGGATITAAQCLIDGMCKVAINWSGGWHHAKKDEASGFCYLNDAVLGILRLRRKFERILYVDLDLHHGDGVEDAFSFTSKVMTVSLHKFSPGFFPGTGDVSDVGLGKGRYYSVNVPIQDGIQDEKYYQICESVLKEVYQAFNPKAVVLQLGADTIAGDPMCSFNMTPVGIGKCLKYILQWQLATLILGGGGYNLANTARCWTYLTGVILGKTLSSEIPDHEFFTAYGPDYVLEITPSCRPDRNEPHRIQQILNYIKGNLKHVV
# Assay Procedure: Inhibition of HDAC8 from human HeLa cells nuclear extract by cell free fluorimetric assay
Entries and their IC50 values follow.
Quantity Kind: IC50 (nM)

Smiles Data	Quantitative Result
CC[C@H]1OC(=O)[C@H](C)[C@@H](O)[C@H](C)[C@@H](O[C@@H]2O[C@H](C)C[C@H](N(C)Cc3ccc(-c4cn(CCCCCCC(=O)NO)nn4)cc3)[C@H]2O)[C@](C)(O)C[C@@H](C)CN(C)[C@H](C)[C@@H](O)[C@]1(C)O	1020
CC[C@H]1OC(=O)[C@H](C)[C@@H](O[C@H]2C[C@@](C)(OC)[C@@H](O)[C@H](C)O2)[C@H](C)[C@@H](O[C@@H]2O[C@H](C)C[C@H](N(C)Cc3ccc(-c4cn(CCCCCCC(=O)NO)nn4)cc3)[C@H]2O)[C@](C)(O)C[C@@H](C)CN(C)[C@H](C)[C@@H](O)[C@]1(C)O	994
CC[C@H]1OC(=O)[C@H](C)[C@@H](O[C@H]2C[C@@](C)(OC)[C@@H](O)[C@H](C)O2)[C@H](C)[C@@H](O[C@@H]2O[C@H](C)C[C@H](N(C)Cc3ccc(-c4cn(CCCCCCCC(=O)NO)nn4)cc3)[C@H]2O)[C@](C)(O)C[C@@H](C)CN(C)[C@H](C)[C@@H](O)[C@]1(C)O	7130

====

# System: SK-MES-1
# Assay Procedure: Cytotoxicity against human SKMES1 cells after 72 hrs by trypan blue exclusion assay
# Type: functional, cell-based
# Study Conditions: SK-MES-1, 72 h
pEC50: −log10 of the molar value.
Quantity Kind: pEC50

Smiles Data	Quantity Kind	Quantitative Result
CC[C@H]1OC(=O)[C@H](C)[C@@H](O[C@H]2C[C@@](C)(OC)[C@@H](O)[C@H](C)O2)[C@H](C)[C@@H](O[C@@H]2O[C@H](C)C[C@H](N(C)Cc3ccc(-c4cn(CCCCCCCCC(=O)NO)nn4)cc3)[C@H]2O)[C@](C)(O)C[C@@H](C)CN(C)[C@H](C)[C@@H](O)[C@]1(C)O	pEC50	5.12
CC[C@H]1OC(=O)[C@H](C)[C@@H](O[C@H]2C[C@@](C)(OC)[C@@H](O)[C@H](C)O2)[C@H](C)[C@@H](O[C@@H]2O[C@H](C)C[C@H](N(C)Cc3ccc(-c4cn(CCCCCC(=O)NO)nn4)cc3)[C@H]2O)[C@](C)(O)C[C@@H](C)CN(C)[C@H](C)[C@@H](O)[C@]1(C)O	pEC50	5.75
CC[C@H]1OC(=O)[C@H](C)[C@@H](O[C@H]2C[C@@](C)(OC)[C@@H](O)[C@H](C)O2)[C@H](C)[C@@H](O[C@@H]2O[C@H](C)C[C@H](N(C)Cc3ccc(-c4cn(CCCCCCCC(=O)NO)nn4)cc3)[C@H]2O)[C@](C)(O)C[C@@H](C)CN(C)[C@H](C)[C@@H](O)[C@]1(C)O	pEC50	5.31
CC[C@H]1OC(=O)[C@H](C)[C@@H](O)[C@H](C)[C@@H](O[C@@H]2O[C@H](C)C[C@H](N(C)Cc3ccc(-c4cn(CCCCCCCC(=O)NO)nn4)cc3)[C@H]2O)[C@](C)(O)C[C@@H](C)CN(C)[C@H](C)[C@@H](O)[C@]1(C)O	pEC50	5.33
